From: the nanobody polyreactivity screen of Harvey et al. (2022)

Test: yeast display, Sf9 membrane polyspecificity reagent, FACS + sequencing; frameworks hold sequencing errors
REPORTED_PROPERTY: polyreactivity (PSR sort gate)

Known polyreactivity (PSR sort gate) results, listed for orientation:
INSERT INTO measurements (seq, reported_property, reported_result) VALUES
  ('QVQLVESGGGLVQAGGSLRLSCAASGRTFRYYAMGWYRPATGKERELVADISSTGRTYYADSVKGRFTISRDNAKNTVYLQMNSLKPEDTAVYYCNADYFFEFDYWGQGTQVTVSS', 'polyreactivity (PSR sort gate)', 'low polyreactivity'),
  ('QVQLVESGGGLVQAGGSLRLSCAASGRTFGYYAMGWYRQAPGKERELFDAITGRTSRTYYADSVKGRFTISRDNAKNTVYLQMNSLKPEDTAVYYCAARYTRWRYNYKDYDYWGQGTQVTVSS', 'polyreactivity (PSR sort gate)', 'high polyreactivity'),
  ('QVQLVESGGGLVQAGGSLRLSCAASGRIFNSYAMGWYRQAPGKERELVAAISSGGSTYYADSVKGRFTFSRDNAKNTVYLQMNSLKPEDTAVYYCADRIWTGRGRKLGYGYDYWGQGTQVTVSS', 'polyreactivity (PSR sort gate)', 'low polyreactivity'),
  ('QVQLVESGGGLVQAAGSLRLSCAASGSISGYYAMGWYRQAPGKERELVASIRYTGARTYYADSVKGRFTISRDNAKNTVYLQMNSLKPEDTAVYYCAADVKRDRVWGGDYWGQGTQVTVSS', 'polyreactivity (PSR sort gate)', 'low polyreactivity');

Attention now shifts to the item below.
Exercise: Any idea what its polyreactivity (PSR sort gate) is? The sequence is "QVQRVESGGGLVQAGGSLRLSCAASGSIFNPYAMGWYRQARGKVRELGAAISKSGTSTSYADSRKGRFTISRDNAKNTVYLQMNSLKPEDTAVYYCAVQVRRRYNYWGQGTQETVSS"
Solution: high polyreactivity
